Molecular target: RPtag (large)
Test: Buffer additive screen, Kd by fluorescence anisotropy
Type: binding, Thermoanaerobacter tengcongensis
Settings: DMSO (20%)
No end group written: not given here.
Items are presented alongside their recorded pKd.
Would you please state pKd, meaning minus log10 of the concentration in mol/L, as a bare number?

- PAELKLITK [Nd8, Cd4, PAELKLITK]: 6.85

Exercise: In one line, give reported pKd of the entry KIANFIPAELKLITKANVQ [Nd2, p5a, e18a, KIANFIPAELKLITKANVQ] .
Key: 10.64

====

Target: RPtag (large)
Experiment: Buffer additive screen, Kd by fluorescence anisotropy
Assay type: binding, Thermoanaerobacter tengcongensis
Conditions: MgCl2 (3M)
No end group written: not given here.
MEASURED METRIC: Kd (nM)
Record the value in nM, omitting the unit from your answer.

* PAELKLITK [Nd8, Cd4, PAELKLITK] | 240

Exercise: Input KIANFIPAELKLITKANVQ [Nd2, p5a, e18a, KIANFIPAELKLITKANVQ] , output reported Kd.
Key: 350

====

Quick list: Kd per entry.
Molecular target: RPtag (large)
Assay: Buffer additive screen, Kd by fluorescence anisotropy
Assay type: binding, Thermoanaerobacter tengcongensis
Conditions: Tween20 (2%)
No end group written: not given here.
Your answer is read as µM, so omit the unit and give the number.

• PAELKLITK [Nd8, Cd4, PAELKLITK] = 0.045

We next turn to a different sequence, shown below.
Exercise: Answer with reported Kd of KIANFIPAELKLITKANVQ [Nd2, p5a, e18a, KIANFIPAELKLITKANVQ]
Key: 0.0047

====

Molecular target: RPtag (large)
Assay: Buffer additive screen, Kd by fluorescence anisotropy
Type: binding, Thermoanaerobacter tengcongensis
Settings: NaCl (3M)
No end group written: not given here.
MEASURED METRIC: Kd (nM)
Provide only the numeric value, understood in nM.

Exercise: Entry PAELKLITK [Nd8, Cd4, PAELKLITK] needs its Kd filled in; supply it.
Key: 0.15

====

Molecular target: RPtag (large)
Assay: Fluorescence anisotropy Kd of rhodamine labeled RPtag (small) peptides for RPtag (large)
Assay type: binding, Thermoanaerobacter tengcongensis
Details: N-terminal rhodamine tagged peptide, unlabeled RPtag (large), 50 mM Tris pH 8.0, 0.005% Tween 20; mean ± SE
pKd: −log10 of the molar value.
MEASURED METRIC: pKd

- AIANFIPAELKLITKANVQ [Nd2, k3a, e18a]: 9.06

Let us examine a further case.
Exercise: # return recorded pKd for input GEKIPNFIP [Cd12]
Key: < 4.00

====

Molecular target: RPtag (large)
Test: Buffer additive screen, Kd by fluorescence anisotropy
Assay type: binding, Thermoanaerobacter tengcongensis
Details: MeOH (20%)
No end group written: not given here.
MEASURED METRIC: Kd (nM)
Write the value in nM as a bare number.

• KIANFIPAELKLITKANVQ [Nd2, p5a, e18a, KIANFIPAELKLITKANVQ] = 0.056

Let's switch to this sequence now.
Exercise: Give me measured Kd, please, for this sequence: PAELKLITK [Nd8, Cd4, PAELKLITK]
Key: 34

====

Biological target: RPtag (large)
Assay: Fluorescence anisotropy Kd of rhodamine labeled RPtag (small) peptides for RPtag (large)
Assay type: binding, Thermoanaerobacter tengcongensis
pKd: −log10 of the molar value. No end group written: not given here.
MEASURED METRIC: pKd

Exercise: // Input: KIANFIPAELKLITKANVQ [Nd2, p5a, e18a, KIANFIPAELKLITKANVQ] . Output its pKd only.
Key: ~10.33

From: patent US11414454B2
